Values were extracted from patent US20250145606A1.

# key: entry, value: Percent of total metabolism via bioactivation, Human hepatocytes
- Tested on: human hepatocytes
- assay.name: Bioactivation assessment in human hepatocytes
- Format: in vitro ADME
- run.parameters: 5 μM, 4 hours
Marks after values point to notes of the source that are not given here.

# count of solved cases: 4
molecule	result
Cc1ncc(C(=O)Nc2cc(C(=O)Nc3ccc(CC4CC4)cn3)c(F)cc2C)s1	<1%
Cc1ccc(-c2noc([C@H]3C[C@@H]3F)n2)cc1NC(=O)c1cnc2ccccn12 [labuxtinib, reference compound]	24%
Cc1ncc(C(=O)Nc2cc(C(=O)Nc3ccc(CC(F)(F)F)cn3)c(F)cc2F)s1	<1%
Cc1ncc(C(=O)Nc2cc(C(=O)Nc3ccc(CC(F)(F)F)cn3)c(F)cc2C)s1	<0.1%^b

Could you now consider this next molecule?
Fill in: Percent of total metabolism via bioactivation, Human hepatocytes of Cc1ncc(C(=O)Nc2cc(C(=O)Nc3ccc(C4CC4)cn3)c(F)cc2C)s1 is ___
<0.1%

* * *

- target.of.assay: UniProt P09619
- assay.name: Inhibition of PDGFRβ kinase activity (HTRF KinEASE-TK)
- run.parameters: biochemical, HTRF KinEASE-TK
pIC50: −log10 of the molar value.
# key: entry, value: pIC50

// lookup pIC50 | system=UniProt P09619 | key= Cc1ncc(C(=O)Nc2cc(C(=O)NCc3cc(F)cc(F)c3)c(F)cc2C)s1
< 6.00

Also need Cc1ncc(C(=O)Nc2cc(C(=O)NCc3ccc(F)c(F)c3)c(F)cc2C)s1 , thanks.
< 6.00

Also need Cc1cc(F)c(C(=O)Nc2ccc(OC3CC3)cn2)cc1NC(=O)c1cnc(C(F)F)s1 , thanks.
< 6.00

Also need Cc1ncc(C(=O)Nc2cc(C(=O)Nc3cc(CC4CC4)ncn3)c(F)cc2C)s1 , thanks.
6.00 to 7.00

Also need Cc1cc(F)c(C(=O)Nc2ccc(O[C@@H]3CCOC3)cn2)cc1NC(=O)c1cnc(N)s1 , thanks.
6.00 to 7.00

Also need Nc1ncc(C(=O)Nc2cc(C(=O)Nc3ccc(C(F)F)cn3)c(F)cc2F)s1 , thanks.
< 6.00

Also need Cc1cc(F)c(C(=O)Nc2ccn(C)n2)cc1NC(=O)c1cnc(N)s1 , thanks.
< 6.00

Also need Nc1ncc(C(=O)Nc2cc(C(=O)NC3CC3)c(F)cc2Cl)s1 , thanks.
< 6.00

* * *

# key: entry, value: IC50
- target.of.assay: PDGFRα (Homo sapiens (Human), UniProt P16234)
- Sequence (P16234 24-1089): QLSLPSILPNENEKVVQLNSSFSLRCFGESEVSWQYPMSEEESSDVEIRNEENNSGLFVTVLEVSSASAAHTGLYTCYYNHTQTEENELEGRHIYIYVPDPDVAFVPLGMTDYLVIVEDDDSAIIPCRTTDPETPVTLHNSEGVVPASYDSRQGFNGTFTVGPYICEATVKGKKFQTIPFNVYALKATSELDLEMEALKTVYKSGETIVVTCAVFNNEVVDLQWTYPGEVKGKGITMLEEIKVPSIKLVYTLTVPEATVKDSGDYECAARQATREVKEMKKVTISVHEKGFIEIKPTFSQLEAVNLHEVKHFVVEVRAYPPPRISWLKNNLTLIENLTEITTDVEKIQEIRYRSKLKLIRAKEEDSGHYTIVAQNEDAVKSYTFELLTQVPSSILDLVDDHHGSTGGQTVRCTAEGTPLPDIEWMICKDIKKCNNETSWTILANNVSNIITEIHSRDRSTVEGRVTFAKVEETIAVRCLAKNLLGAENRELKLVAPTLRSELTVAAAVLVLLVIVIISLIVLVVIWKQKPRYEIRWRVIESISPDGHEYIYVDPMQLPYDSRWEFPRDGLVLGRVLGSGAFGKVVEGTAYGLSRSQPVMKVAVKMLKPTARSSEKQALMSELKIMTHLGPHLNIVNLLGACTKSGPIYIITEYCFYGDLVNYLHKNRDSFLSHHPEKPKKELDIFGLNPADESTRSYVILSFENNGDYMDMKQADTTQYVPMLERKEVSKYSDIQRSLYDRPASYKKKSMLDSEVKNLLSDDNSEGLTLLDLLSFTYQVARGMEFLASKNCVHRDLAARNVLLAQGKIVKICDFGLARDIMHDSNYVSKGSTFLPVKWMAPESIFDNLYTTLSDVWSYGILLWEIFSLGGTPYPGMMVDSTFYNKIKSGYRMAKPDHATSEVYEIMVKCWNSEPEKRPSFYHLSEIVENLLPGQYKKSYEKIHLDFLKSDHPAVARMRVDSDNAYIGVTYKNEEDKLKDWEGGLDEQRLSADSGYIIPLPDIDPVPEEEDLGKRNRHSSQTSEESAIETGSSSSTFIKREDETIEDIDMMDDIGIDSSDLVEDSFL
- assay.name: Inhibition of PDGFRα kinase activity (HTRF KinEASE-TK)
- run.parameters: biochemical, HTRF KinEASE-TK

# count of solved cases: 10
mol.smiles	IC50
Cc1ncc(C(=O)Nc2cc(C(=O)Nc3ccc(CC(F)(F)F)cn3)c(F)cc2Cl)s1	> 1000 nM
Cc1ncc(C(=O)Nc2cc(C(=O)NCc3ccc(F)c(F)c3)c(F)cc2C)s1	> 1000 nM
CCc1ccc(NC(=O)c2cc(NC(=O)c3cnc(N)s3)c(C)cc2F)nc1	100 to 1000 nM
Cc1cc(F)c(C(=O)N[C@H]2C[C@H]2F)cc1NC(=O)c1cnc(N)s1	100 to 1000 nM
CO[C@@H]1CCN(c2cnc(NC(=O)c3cc(NC(=O)c4cnc(C)s4)c(C)cc3F)cn2)C1	> 1000 nM
Cc1ncc(C(=O)Nc2cc(C(=O)NCc3ccc(C(F)(F)F)cc3)c(F)cc2C)s1	> 1000 nM
Cc1nnc(NC(=O)c2cc(NC(=O)c3cnc(N)s3)c(C)cc2F)s1	> 1000 nM
Cc1ncc(C(=O)Nc2cc(C(=O)Nc3cnc(N4CC[C@@H](F)C4)cn3)c(F)cc2C)s1	> 1000 nM
CNc1ncc(C(=O)Nc2cc(C(=O)Nc3ccc(OC4CC4)cn3)c(F)cc2C)s1	> 1000 nM
Cc1ncc(C(=O)Nc2cc(C(=O)Nc3ccc(CC(F)F)cn3)c(F)cc2C)s1	> 1000 nM

Fill in: IC50 of Nc1ncc(C(=O)Nc2cc(C(=O)Nc3ccc(OC(F)F)cn3)c(F)cc2F)s1 is ___
> 1000 nM

Also need Cc1ncc(C(=O)Nc2cc(C(=O)Nc3ccc(OCC(F)F)cn3)c(F)cc2C)s1 , thanks.
> 1000 nM

Also need Cc1cc(F)c(C(=O)Nc2ccn(CC(F)F)n2)cc1NC(=O)c1cnc(N)s1 , thanks.
> 1000 nM

Also need Cc1ncc(C(=O)Nc2cc(C(=O)Nc3ccn(C(C)C)n3)c(F)cc2C)s1 , thanks.
> 1000 nM

* * *

- target.of.assay: PDGFRβ (Homo sapiens (Human), UniProt P09619)
- Sequence (P09619 33-1106): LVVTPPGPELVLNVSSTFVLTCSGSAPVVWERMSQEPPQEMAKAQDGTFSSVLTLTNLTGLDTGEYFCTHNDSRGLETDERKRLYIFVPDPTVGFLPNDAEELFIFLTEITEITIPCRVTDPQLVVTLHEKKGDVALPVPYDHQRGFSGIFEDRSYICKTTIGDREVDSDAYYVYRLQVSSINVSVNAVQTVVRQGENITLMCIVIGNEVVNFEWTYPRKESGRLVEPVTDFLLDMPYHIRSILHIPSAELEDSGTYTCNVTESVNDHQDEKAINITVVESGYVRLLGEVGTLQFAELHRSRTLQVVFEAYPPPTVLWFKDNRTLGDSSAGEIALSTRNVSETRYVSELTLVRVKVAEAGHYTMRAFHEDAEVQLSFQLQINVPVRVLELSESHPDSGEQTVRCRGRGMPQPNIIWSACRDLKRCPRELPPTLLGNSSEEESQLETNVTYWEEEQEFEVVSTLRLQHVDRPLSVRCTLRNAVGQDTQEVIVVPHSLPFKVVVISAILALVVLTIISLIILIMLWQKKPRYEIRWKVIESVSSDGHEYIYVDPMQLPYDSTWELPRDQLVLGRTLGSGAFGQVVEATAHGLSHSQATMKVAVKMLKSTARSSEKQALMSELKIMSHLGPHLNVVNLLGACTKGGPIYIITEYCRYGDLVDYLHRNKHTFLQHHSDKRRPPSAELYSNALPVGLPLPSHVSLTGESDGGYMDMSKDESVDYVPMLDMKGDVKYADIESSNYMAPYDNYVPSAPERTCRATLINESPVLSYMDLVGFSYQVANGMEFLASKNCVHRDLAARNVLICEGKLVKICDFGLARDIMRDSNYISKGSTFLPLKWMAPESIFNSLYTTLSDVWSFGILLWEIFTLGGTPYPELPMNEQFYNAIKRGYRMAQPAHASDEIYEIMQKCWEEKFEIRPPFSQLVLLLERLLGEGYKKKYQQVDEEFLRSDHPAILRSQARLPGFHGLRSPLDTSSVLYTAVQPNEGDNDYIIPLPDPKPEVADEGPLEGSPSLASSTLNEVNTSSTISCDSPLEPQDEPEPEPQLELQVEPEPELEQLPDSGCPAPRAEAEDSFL
- assay.name: Inhibition of PDGFRβ kinase activity (HTRF KinEASE-TK)
- run.parameters: biochemical, HTRF KinEASE-TK
measured.property: IC50

compound	IC50
Cc1cc(F)c(C(=O)N[C@H]2CCOC2)cc1NC(=O)c1cnc(NC(=O)N2CCOCC2)s1 [Example 105]	> 1 µM
Cc1cc(F)c(C(=O)Nc2ccc(COC(C)C)cn2)cc1NC(=O)c1cnc(N)s1 [Example 195]	> 1 µM
Cc1ncc(C(=O)Nc2cc(C(=O)Nc3ccc(C(F)F)cn3)c(F)cc2C)s1 [Example 16]	> 1 µM
Cc1cc(F)c(C(=O)Nc2ccc(F)cc2)cc1NC(=O)c1cnc(N)s1 [Example 233]	> 1 µM
Cc1cc(F)c(C(=O)Nc2ccn(CC(C)(C)O)n2)cc1NC(=O)c1cnc(N)s1 [Example 153]	> 1 µM
Cc1cc(F)c(C(=O)Nc2ccc(CN3CCOCC3)cn2)cc1NC(=O)c1cnc(N)s1 [Example 248]	> 1 µM
Cc1cc(F)c(C(=O)Nc2ccc(OC3CC3)cn2)cc1NC(=O)c1cnc(NC(=O)C2CC2)s1 [Example 238]	< 0.1 µM
Cc1cc(F)c(C(=O)Nc2ccc(OC3CC3)cn2)cc1NC(=O)c1cnc(NC(=O)[C@@H]2CCOC2)s1 [Example 107]	0.1 to 1 µM

Could you now consider this next compound?
Fill in: IC50 of Cc1cc(F)c(C(=O)Nc2ccc3c(c2)C(F)(F)C(=O)N3)cc1NC(=O)c1cnc(N)s1 [Example 188] is ___
< 0.1 µM

* * *

- target.of.assay: UniProt P07333
- Sequence (P07333 20-972): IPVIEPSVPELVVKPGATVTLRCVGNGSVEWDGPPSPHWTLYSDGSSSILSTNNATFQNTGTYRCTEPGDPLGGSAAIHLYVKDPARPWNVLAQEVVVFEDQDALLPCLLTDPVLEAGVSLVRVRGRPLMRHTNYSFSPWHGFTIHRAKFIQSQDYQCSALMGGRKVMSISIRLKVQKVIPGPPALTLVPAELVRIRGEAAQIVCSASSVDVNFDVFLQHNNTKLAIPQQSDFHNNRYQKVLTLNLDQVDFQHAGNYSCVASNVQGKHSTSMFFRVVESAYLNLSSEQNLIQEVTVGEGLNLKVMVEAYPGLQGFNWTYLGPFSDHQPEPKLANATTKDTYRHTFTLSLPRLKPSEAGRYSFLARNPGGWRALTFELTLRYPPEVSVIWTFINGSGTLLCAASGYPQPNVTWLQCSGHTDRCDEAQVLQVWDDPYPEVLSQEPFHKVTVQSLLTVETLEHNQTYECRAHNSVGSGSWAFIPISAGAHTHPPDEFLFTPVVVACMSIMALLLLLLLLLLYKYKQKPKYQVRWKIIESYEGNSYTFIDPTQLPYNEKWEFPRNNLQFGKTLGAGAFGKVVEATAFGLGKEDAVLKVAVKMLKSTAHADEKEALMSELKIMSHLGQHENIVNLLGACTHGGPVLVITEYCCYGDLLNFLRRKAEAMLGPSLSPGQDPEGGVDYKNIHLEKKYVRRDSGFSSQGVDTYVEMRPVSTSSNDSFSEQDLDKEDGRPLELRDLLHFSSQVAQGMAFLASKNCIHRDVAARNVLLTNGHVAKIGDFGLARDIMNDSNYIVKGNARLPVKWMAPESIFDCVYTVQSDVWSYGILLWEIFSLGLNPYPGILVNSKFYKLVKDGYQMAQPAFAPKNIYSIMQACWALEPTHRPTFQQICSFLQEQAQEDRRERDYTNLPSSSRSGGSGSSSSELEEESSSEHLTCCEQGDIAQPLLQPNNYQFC
- assay.name: Inhibition of CSF1R kinase activity (HTRF KinEASE-TK)
- run.parameters: biochemical, HTRF KinEASE-TK
- Protocol: Inhibition of c-Kit, PDGFRα, PDGFRβ, CSFIR and FLT3 Kinase Activity Compounds were evaluated to determine the potency with which they inhibit the kinase activity of the following panel of tyrosine kinases: c-Kit (SignalChem, Product #: K06-11BG), PDGFRα (SignalChem, Product #: P12-18G), PDGFRβ (SignalChem, Product #: P13-11G), CSFIR (SignalChem, Product #: C74-11G) and FLT3 (Invitrogen, Product #: PR4666C). […]
measured.property: IC50

# count of solved cases: 7
compound	IC50
Cc1cc(F)c(C(=O)Nc2ccc(C(C)(O)C(F)(F)F)cn2)cc1NC(=O)c1cnc(N)s1 (centres unmarked)	< 100 nM
Cc1ncc(C(=O)Nc2cc(C(=O)Nc3cnc(C(F)F)cn3)c(F)cc2C)s1	> 1000 nM
Cc1ncc(C(=O)Nc2cc(C(=O)NCc3ccc(OC(F)(F)F)cc3)c(F)cc2C)s1	> 1000 nM
CC(C)Oc1ccc(NC(=O)c2cc(NC(=O)c3cnc(N)s3)c(F)cc2F)nc1	> 1000 nM
CO[C@@H]1CCN(c2cnc(NC(=O)c3cc(NC(=O)c4cnc(C)s4)c(C)cc3F)cn2)C1	> 1000 nM
Cc1cc(F)c(C(=O)Nc2ccc3c(n2)COCC3)cc1NC(=O)c1cnc(N)s1	100 to 1000 nM
Cc1ncc(C(=O)Nc2cc(C(=O)Nc3ccc(CC(F)(F)F)cn3)c(F)cc2Cl)s1	> 1000 nM

Could you now consider this next compound?
Fill in: IC50 of Cc1ncc(C(=O)Nc2cc(C(=O)Nc3ccc(C#N)cn3)c(F)cc2C)s1 is ___
> 1000 nM

* * *

- target.of.assay: UniProt:P09619
- assay.name: Inhibition of PDGFRβ kinase activity (HTRF KinEASE-TK)
- run.parameters: biochemical, HTRF KinEASE-TK
measured.property: IC50

mol.smiles	target.of.assay	IC50
Cc1ccc(NC(=O)c2cc(NC(=O)c3cnc(N)s3)c(C)cc2F)nc1	UniProt:P09619	> 1000 nM

Fill in: IC50 of COC1CN(c2cnc(NC(=O)c3cc(NC(=O)c4cnc(C)s4)c(C)cc3F)cn2)C1 is ___
> 1000 nM

Also need COCCOc1ccc(NC(=O)c2cc(NC(=O)c3cnc(N)s3)c(C)cc2F)nc1 , thanks.
> 1000 nM

Also need Cc1cc(F)c(C(=O)Nc2ccn(C3CCC3)n2)cc1NC(=O)c1cnc(N)s1 , thanks.
100 to 1000 nM
